Every entry's value here was drawn from ChEMBL document CHEMBL1961873.

Property: inhibition; scope: individual molecules
molecular target: cAMP-dependent protein kinase catalytic subunit alpha (Homo sapiens); conditions: at 1 µM;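 further: mean percent inhibition of PKA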
Report the figure in % without appending any unit label.

1) CS(=O)(=O)CCNCc1ccc(-c2ccc3ncnc(Nc4ccc(OCc5ccccc5)c(Br)c4)c3c2)o1 | -1.94
2) CN1CCN(CCCNc2nc3ccc(Oc4ccc(NC(=O)Nc5cc(C(F)(F)F)ccc5F)cc4)cc3[nH]2)CC1 | -0.98
3) O=C(Nc1n[nH]c2cc(-c3cc(F)ccc3F)ccc12)C1CC1 | 0.93

Output inhibition of "Cc1ccc(NC(=O)c2ccoc2)cc1-c1ccc(C(=O)NCC2CC2)cc1"
2.23

Entry "Fc1ccc(-c2ncn(C3CCNCC3)c2-c2ccnc(Oc3ccc(Oc4ccccc4)cc3)n2)cc1" needs its inhibition filled in; supply it.
24.9

Respond only with inhibition recorded for "CCc1nccc2c1nc(-c1nonc1N)n2CC"
4.19

Please indicate inhibition recorded for "COc1cc2ncn(-c3cc(OCc4ccccc4C(F)(F)F)c(C(C)=O)s3)c2cc1OC"
1.7
